Measured EC50 of individual entries
- Test system: Human immunodeficiency virus 1
- PROTOCOL DETAILS: Inhibition of HIV1 LAI replication in MT2 by CPE assay
- Assay type: functional, organism-based
- ASSAY SETUP: Human immunodeficiency virus 1, LAI
ATTRIBUTE MEASURED: EC50

# MOLECULE, MEASURED VALUE
rows = [
    ("Nc1nc2c(ncn2/C=C2/CC2(F)CO)c(=O)[nH]1 (stereo not given)", "> 100 µM"),
    ("Nc1nc2c(ncn2/C=C2\\CC2(F)CO)c(=O)[nH]1 (stereo not given)", "> 100 µM"),
    ("Nc1ccn(/C=C2\\CC2(F)CO)c(=O)n1 (stereo not given)", "> 100 µM"),
    ("Nc1ncnc2c1ncn2/C=C1/CC1(F)CO (stereo not given)", "12 µM"),
    ("Cc1cn(/C=C2\\CC2(F)CO)c(=O)[nH]c1=O (stereo not given)", "> 100 µM"),
]
